Biological target: acetylcholine receptor
Test: SPR, AchR immobilised on CM5 chip, peptide 10 uM
measured attribute: Binding affinity (RU)

Here is how some binders turned out for Binding affinity (RU).
INSERT INTO results (binder, result) VALUES
  ('RATNRK [6mer-2-720]', 29),
  ('RRKKIR [6mer-1-1038]', 21),
  ('KYDIKR [6mer-2-632]', 12),
  ('RRTWAR [6mer-1-961]', 122),
  ('KANPKK [6mer-2-643]', 12),
  ('RATHRK [6mer-2-715]', 32);

P. KKAEEK [6mer-1-986]
Q. RHPAKK [6mer-2-772]
R. RDTWRR [6mer-2-681]
Lookup: Rank items: key Binding affinity (RU), increasing. Reply: labels, ordered per the request.
Found: Q, P, R
(Q: 15 RU, P: 22 RU, R: 33 RU)

a. KAWIRR [6mer-2-614]
b. KKITAR [6mer-1-1042]
c. KHHKKR [6mer-2-618]
Lookup: Rank items: key Binding affinity (RU), increasing. Reply: labels, ordered per the request.
Found: c, a, b
(c: 12 RU, a: 19 RU, b: 40 RU)
